# protocol: Serum anastrozole by liquid chromatography-tandem mass spectrometry
# Format: in vivo, human
# runParameters: human, serum, sc, Serum anastrozole, Example 1; Pellet 1 (testosterone 59 mg, anastrozole 2.75 mg, s.c.); 3 month
propertyLabel: concentration at 3 month (ng/mL)

# itemSmiles, recordedNumber
records = [
    ("CC(C)(C#N)c1cc(Cn2cncn2)cc(C(C)(C)C#N)c1", 28),
]

----------
# protocol: Serum anastrozole by liquid chromatography-tandem mass spectrometry
# Assay type: in vivo, human
# runParameters: female, human, serum, sc, Example 2; 30 patients; s.c. testosterone and anastrozole at 4 months intervals; read-out: Serum anastrazole (ng/ml) 1st 3 month trough, median (range)
propertyLabel: concentration at 3 month (ng/mL)

# compound, recordedNumber
rows = [
    ("CC(C)(C#N)c1cc(Cn2cncn2)cc(C(C)(C)C#N)c1 [anastrozole]", 27),
]
